Data origin, for the record: the supplement of paper PMC11061612

Tested on: SW872 (Other Solid Carcinomas);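 also: after 72 h of two-drug dosing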
Test: Bliss excess, mean over the matrix (fraction); higher = more synergy
Bliss excess overview
In your answer, state the number alone without any accompanying words.

COc1nnc2ccc(N3CCC(c4ccc(OCCN5CCN(C)C(=O)[C@H]5C)cc4)CC3)nn12 [AZD5153] + C[C@@H]1COCCN1C2=NC(=NC(=C2)C3(CC3)[S@](=N)(=O)C)C4=C5C=CNC5=NC=C4 [AZD6738] (first compound max 1 µM, 7x7, partner max 10 µM) : -0.0383

// switching to the query compound
Recorded Bliss excess (compound CN(CCO)CC[C@H](CSc1ccccc1)Nc1ccc(S(=O)(=O)NC(=O)c2ccc(N3CCC([C@@H](O)c4ccccc4-c4ccc(Cl)cc4)CC3)cc2)cc1S(=O)(=O)C(F)(F)F [AZD4320] + C1CN(CCC1(C(=O)N[C@@H](CCO)C2=CC=C(C=C2)Cl)N)C3=NC=NC4=C3C=CN4 [Capivasertib] (first compound max 1 µM, 7x7, partner max 3 µM) ): -0.0237
